assay: Cytotoxicity against human H522-T1 cells after 96 hrs by CellTire-Glo luminescent assay; format: functional, cell-based; conditions: H522-T1, 96 h
pIC50: −log10 of the molar value.
REPORTED METRIC: pIC50

INSERT INTO results (compound, reported_metric, reading_qualifier, numeric_result) VALUES
  ('CC(=O)C1=CC[C@H]2[C@]3(C)CC[C@H]4C(C)(C)CCC[C@]4(CO)[C@H]3C[C@@H](O)[C@]2(C)[C@H]1C=O (relative stereo)', 'pIC50', '=', 6.21),
  ('CC(=O)C1=CC[C@H]2[C@]3(C)CC[C@H]4C(C)(C)CCC[C@]4(CO)[C@H]3C[C@H](O)[C@]2(C)[C@@H]1C=O (relative stereo)', 'pIC50', '=', 5.77),
  ('CC(=O)O[C@H]1C(=O)[C@@]2(C)[C@H]([C@H](OC(=O)c3ccccc3)[C@]3(O)C[C@H](OC(=O)[C@H](O)[C@@H](NC(=O)c4ccccc4)c4ccccc4)C(C)=C1C3(C)C)[C@]1(OC(C)=O)CO[C@@H]1C[C@@H]2O', 'pIC50', '=', 8.09),
  ('CC1(O)OC(=O)C2=C1CC[C@H]1[C@]3(C)CC[C@H]4C(C)(C)CCC[C@]4(CO)[C@H]3C[C@@H](O)[C@]21C (stereo not given in full)', 'pIC50', '<', 5.00),
  ('CC1(C)CCC[C@@]2(CO)[C@H]1CC[C@]1(C)[C@@H]2C[C@@H](O)[C@]2(C)[C@H]3C=CC(=O)C3=CC[C@@H]12 (relative stereo)', 'pIC50', '=', 5.28);

====

Each item that follows carries a reported pIC50.
system: A2058; experiment: Cytotoxicity against human A2058 cells after 96 hrs by CellTire-Glo luminescent assay; format: functional, cell-based; conditions: A2058, 96 h
pIC50: −log10 of the molar value.
REPORTED METRIC: pIC50

INSERT INTO results (compound, reading_qualifier, numeric_result) VALUES
  ('CC1(C)CCC[C@@]2(CO)[C@H]1CC[C@]1(C)[C@@H]2C[C@@H](O)[C@]2(C)[C@H]3C=CC(=O)C3=CC[C@@H]12 (relative stereo)', '=', 5.38),
  ('CC1(O)OC(=O)C2=C1CC[C@H]1[C@]3(C)CC[C@H]4C(C)(C)CCC[C@]4(CO)[C@H]3C[C@@H](O)[C@]21C (stereo not given in full)', '<', 5.00),
  ('CC(=O)C1=CC[C@H]2[C@]3(C)CC[C@H]4C(C)(C)CCC[C@]4(CO)[C@H]3C[C@H](O)[C@]2(C)[C@@H]1C=O (relative stereo)', '=', 5.74),
  ('CC(=O)O[C@H]1C(=O)[C@@]2(C)[C@H]([C@H](OC(=O)c3ccccc3)[C@]3(O)C[C@H](OC(=O)[C@H](O)[C@@H](NC(=O)c4ccccc4)c4ccccc4)C(C)=C1C3(C)C)[C@]1(OC(C)=O)CO[C@@H]1C[C@@H]2O', '=', 8.33),
  ('CC(=O)C1=CC[C@H]2[C@]3(C)CC[C@H]4C(C)(C)CCC[C@]4(CO)[C@H]3C[C@@H](O)[C@]2(C)[C@H]1C=O (relative stereo)', '<', 6.43);
